Test system: NCI-H460 lung
Outcomes: true (active), false (inactive)

# chemical structure, group label
rows = [
    ("CCCCSSC(=S)N(CC)CC", "false"),
    ("NS(=O)(=O)N(c1cc(C(F)(F)F)cc(C(F)(F)F)c1)C1CCN(Cc2ccc(C(F)(F)F)cc2)CC1", "false"),
    ("CN1CCN(Cc2ccc(NC(=O)c3cnc(F)c(C#Cc4cnc(N)c5ncccc45)c3)cc2C(F)(F)F)CC1", "true"),
    ("CNCCCNc1c2cc(OC)ccc2nc2cccc([N+](=O)[O-])c12", "true"),
]

---

Test system: SN12C renal
assay overview: NCI tumour cell line growth inhibition, 48 h
The molecules listed here are annotated with their GI50.

# chemical structure, study target, GI50
measured = [
    ("O=C(NC1CCCCC1)NS(=O)(=O)c1ccc(-n2nc3c(c2-c2cccs2)Cc2ccccc2-3)cc1", "SN12C renal", "21.5 µM"),
    ("C=C(C)[C@@H]1CC[C@]2(COC(C)=O)CC[C@]3(C)[C@H](CC[C@@H]4[C@@]5(C)CCCN(C(C)=O)C(C)(C)[C@@H]5CC[C@]43C)[C@@H]12", "SN12C renal", "1.75 µM"),
    ("CCCCCCCCCCCCCCCCNC(=O)OC(C)C", "SN12C renal", "4.53 µM"),
    ("CC(C)(C)CC(C)(C)c1ccc(OCCSC(=N)N)cc1", "SN12C renal", "1.68 µM"),
    ("COC(=O)[C@@H]1CCCN1C(=O)[C@@H]1CCCN1C(=O)[C@H](Cc1ccccc1)NC(=S)Nc1cc(C(F)(F)F)cc(C(F)(F)F)c1", "SN12C renal", "3.47 µM"),
]
